- Test system: velvetleaf
- protocol-text: Test B pre-/postemergence herbicide test
- Type: in vivo, Abutilon theophrasti
- setup-conditions: 125 g ai/ha; visual rating, scale 0 (no effect) to 100 (complete control); postemergence
endpoint: Velvetleaf plant response rating
Give bare numbers.

For each listed entry, give its Velvetleaf plant response rating.
1. CCc1nn(C(C)(C)CC)nc1C(=O)Nc1cccc(C(=O)N(C)C)c1 [Compound 372]
2. CCc1nn(C(C)(C)C)nc1C(=O)Nc1cc(C(=O)N(C)CC)ccc1F [Compound 388]
3. C#CCNC(=O)c1ccc(F)c(NC(=O)c2cc(C3(C)CC3)nn2CC)c1 [Compound 302]
4. CCN1N=C(C(C)(C)C)CC1C(=O)Nc1cc(C(=O)N2CCCCC2)ccc1F (racemic) [Compound 331]
5. C#CCNC(=O)c1cccc(NC(=O)c2nn(C(C)C)nc2CC)c1 [Compound 379]
6. CCOc1ccc(F)c(NC(=O)c2cc(C(C)(C)C)nn2CC)c1 [Compound 348]
7. CCn1nc(C(C)(C)C)cc1C(=O)Nc1cncc(C(=O)N(C)C)n1 [Compound 287]

[10, 20, 10, 10, 0, 0, 0]

* * *

I'd be grateful if you could share measured Plant response rating, Velvetleaf for these entries.
- Test system: velvetleaf
- protocol-text: Test C pre-/postemergence herbicide test
- Type: in vivo, Abutilon theophrasti
- setup-conditions: postemergence, 125 g ai/ha; scale 0 to 100
Answers are plain numbers.

{"line-notation": "C#CCOC(=O)c1cccc(NC(=O)c2cc(C(C)(C)C)nn2CC)c1", "endpoint-value": 0}
{"line-notation": "CCn1nc(C(C)(C)C)cc1C(=O)Nc1cccc(C(C)=NO)c1", "endpoint-value": 60}
{"line-notation": "CCn1nc(C(C)(C)C)cc1C(=O)Nc1cccc(OC(F)(F)C(F)F)c1", "endpoint-value": 50}

Switching to the query record.
Need Plant response rating, Velvetleaf, item CCn1nc(C(C)(C)C)cc1C(=O)Nc1cccc(C(=O)OC)c1
55

* * *

- System: wild oat
- protocol-text: Test C postemergence herbicide test
- Assay type: in vivo, Avenafatua
- setup-conditions: postemergence, 125 g ai/ha; scale 0 to 100
I'd be grateful if you could share measured Plant response rating, Oat, Wild for these entries.

{"compound": "CCc1nn(C(C)(C)C)nc1C(=O)Nc1cccc(C(=O)NC2CC2)c1 [Compound 417]", "endpoint-value": 40}

For each listed entry, give its Plant response rating, Oat, Wild.
1. CCn1nc(C2(C)CC2)cc1C(=O)Nc1cccc(C(=O)N2CC=CC2)c1 [Compound 304]
2. C#CCNC(=O)c1cccc(NC(=O)c2nn(C(C)(C)C)nc2CC)c1 [Compound 380]
3. CCn1nc(C(C)(C)C)cc1C(=O)Nc1cccc(OC(F)(F)C(F)F)c1 [Compound 333]

1. 60
2. 60
3. 60

* * *

I'd be grateful if you could share measured Surinam Grass plant response rating (0 to 100 scale) for these entries.
- Test system: Surinam grass
- protocol-text: Test B pre-/postemergence herbicide test
- Format: in vivo, Urochloa decumbens
- setup-conditions: 125 g ai/ha; 0 = no effect, 100 = complete control; preemergence
Numbers only.

For each listed entry, give its Surinam Grass plant response rating (0 to 100 scale).
1. C=CCNC(=O)c1cccc(NC(=O)c2sc(C(C)(C)C)nc2C)c1
2. CCc1nc(C(C)(C)C)sc1C(=O)Nc1cccc(C(=O)NCC2CC2)n1
3. CCn1nc(C(C)(C)C)cc1C(=O)Nc1cc(C(N)=O)ccc1F
4. CCn1nc(C(C)(C)C)cc1C(=O)Nc1cccc(C(=O)N2CC=CC2)c1
5. Cc1nc(C(C)(C)C)sc1C(=O)Nc1cccc(C(=O)NCC(F)(F)F)c1
6. CCn1nc(C(C)(C)C)cc1C(=O)Nc1nc(C(=O)N(C)C)ccc1F
7. CCc1nn(C(C)(C)C)cc1C(=O)Nc1cccc(C(C)=NO)c1

1: 0; 2: 0; 3: 0; 4: 10; 5: 0; 6: 0; 7: 30

For each listed entry, give its Surinam Grass plant response rating (0 to 100 scale).
1. COC(=O)c1cccc(NC(=O)c2cc(C(C)(C)C)nn2C)n1
2. CCNC(=O)c1ccc(F)c(NC(=O)c2c(F)c(C(C)(C)C)nn2CC)c1

1: 0; 2: 0

* * *

I'd be grateful if you could share measured Crabgrass, Large plant response rating for these entries.
- System: large crabgrass
- protocol-text: Test B pre-/postemergence herbicide test
- Assay type: in vivo, Digitaria sanguinalis
- setup-conditions: postemergence, 500 g ai/ha; scale 0 to 100, 0 is no effect, 100 is complete control
- Experimental: […] At the same time, plants selected from these crop and weed species and also blackgrass (Alopecurus myosuroides Huds.), wheat (Triticum aestivum L.) and wild oat (Avena fatua L.) were treated with postemergence applications of test chemicals formulated in the same manner. […] Treated plants and controls were maintained in a greenhouse for 13 to 15 days, after which time all species were compared to controls and visually evaluated. […]
Give bare numbers.

{"line-notation": "CCn1nc(C2(C)CC2)cc1C(=O)Nc1cccc(C(=O)N2CC=CC2)c1", "target": "large crabgrass", "Crabgrass, Large plant response rating": 10}
{"line-notation": "CCn1nc(C(C)(C)C)cc1C(=O)Nc1cc(C(=O)N2CCOCC2)ccc1F", "target": "large crabgrass", "Crabgrass, Large plant response rating": 10}

For each listed entry, give its Crabgrass, Large plant response rating.
1. CCn1nc(C(C)(C)C)cc1C(=O)Nc1cc(C(N)=O)ccc1F
2. Cc1nn(C(C)(C)C)cc1C(=O)Nc1cc(C(=O)N(C)C)ccc1F
3. C#CCNC(=O)c1ccc(F)c(NC(=O)c2cc(C3(C)CC3)nn2CC)c1
4. CCn1nc(C(C)(C)C)cc1C(=O)Nc1cccc(C(=O)N2CC=CC2)c1
5. CCc1nn(C(C)(C)C)nc1C(=O)Nc1cc(C(=O)N2CCCCC2)ccc1F
6. C#CCNC(=O)c1cccc(NC(=O)c2cc(C(C)(C)C)nn2C)n1
7. CCc1nn(C(C)(C)CC)nc1C(=O)Nc1cccc(C(=O)N(C)C)c1

1: 0; 2: 10; 3: 10; 4: 10; 5: 20; 6: 10; 7: 20

* * *

- Tested on: common (oilseed) sunflower
- protocol-text: Test C pre-/postemergence herbicide test
- Type: in vivo, Helianthus annuus
- setup-conditions: 250 g ai/ha; scale 0-100; preemergence
endpoint: Plant response rating, Sunflower
Numbers only.

{"compound": "C=CCNC(=O)c1cccc(NC(=O)c2sc(C(C)(C)C)nc2C)c1 [Compound 202]", "target": "common (oilseed) sunflower", "Plant response rating, Sunflower": 10}
{"compound": "CCn1nc(C(C)(C)C)cc1C(=O)Nc1cc(C(=O)N2CCCC2)ccc1F [Compound 242]", "target": "common (oilseed) sunflower", "Plant response rating, Sunflower": 50}
{"compound": "CCC1=NN(C(C)(C)C)CC1C(=O)Nc1cc(C(=O)N2CCCC2)ccc1F (racemic) [Compound 341]", "target": "common (oilseed) sunflower", "Plant response rating, Sunflower": 50}

For each listed entry, give its Plant response rating, Sunflower.
1. Cc1nn(C(C)(C)C)nc1C(=O)Nc1cccc(C(=O)N(C)C)c1 [Compound 391]
2. CCC1=NN(C(C)(C)C)CC1C(=O)Nc1cc(C(=O)N2CC=CC2)ccc1F (racemic) [Compound 340]
3. CCC1=NN(C(C)(C)C)CC1C(=O)Nc1cc(C(=O)N(C)CC)ccc1F (racemic) [Compound 342]
4. CCNC(=O)c1cccc(NC(=O)c2nn(C(C)(C)CC)nc2CC)c1 [Compound 376]
5. CCN1N=C(C(C)(C)C)CC1C(=O)Nc1cc(C(=O)N2CCCC2)ccc1F (racemic) [Compound 309]

100
0
75
0
5

* * *

- System: pigweed
- protocol-text: Test B pre-/postemergence herbicide test
- Format: in vivo, Amaranthus retroflexus
- setup-conditions: 125 g ai/ha; 0 = no effect, 100 = complete control; preemergence
endpoint: Pigweed plant response rating (0 to 100 scale)
Answers are plain numbers.

Observe how each entry below is paired with its result.
{"compound": "C#CCNC(=O)c1ccc(F)c(NC(=O)c2cc(C3(C)CC3)nn2CC)c1 [Compound 302]", "endpoint-value": 100}
{"compound": "CCn1nc(C(C)(C)C)cc1C(=O)Nc1cccc(OC(F)(F)F)c1 [Compound 272]", "endpoint-value": 90}
{"compound": "CCn1nc(C(C)(C)C)cc1C(=O)Nc1cc(C(N)=O)ccc1F [Compound 271]", "endpoint-value": 0}

For each listed entry, give its Pigweed plant response rating (0 to 100 scale).
1. CCN1N=C(C(C)(C)C)CC1C(=O)Nc1cc(C(=O)N2CCCC2)ccc1F (racemic) [Compound 309]
2. CCn1nc(C(C)(C)C)cc1C(=O)Nc1ccnc(C(=O)NCCF)c1 [Compound 284]
3. COC(=O)c1cccc(NC(=O)c2cc(C(C)(C)C)nn2C)n1 [Compound 312]
4. Cc1nc(C(C)(C)C)sc1C(=O)Nc1cccc(C(=O)NCCF)c1 [Compound 200]
5. CCc1nc(C(C)(C)C)sc1C(=O)Nc1cccc(C(=O)NCC2CC2)n1 [Compound 215]

1: 70; 2: 90; 3: 0; 4: 10; 5: 80

For each listed entry, give its Pigweed plant response rating (0 to 100 scale).
1. CCOC(=O)c1ccc(F)c(NC(=O)c2cc(C3(C)CC3)nn2CC)c1 [Compound 296]
2. CCn1nc(C(C)(C)C)cc1C(=O)Nc1cc(C(=O)N2CCOCC2)ccc1F [Compound 243]
3. CCc1cn(C(C)(C)C)nc1C(=O)Nc1cc(C(=O)N(C)CC)ccn1 [Compound 235]

1: 70; 2: 60; 3: 30

For each listed entry, give its Pigweed plant response rating (0 to 100 scale).
1. CCn1nc(C2(C)CC2)cc1C(=O)Nc1cccc(C(=O)N2CC=CC2)c1 [Compound 304]
2. CCc1nn(C(C)(C)C)cc1C(=O)Nc1ccc(F)c(C(=O)N(C)C)c1 [Compound 239]

[100, 0]

Need Pigweed plant response rating (0 to 100 scale), item C#CCNC(=O)c1cncc(NC(=O)c2cc(C(C)(C)C)nn2CC)c1 [Compound 264]
0
